tested on: P12-Ichikawa; experiment: AUC of viability dose-response curve (% viability x log10 dose units); higher = less sensitive; details: RPMI 5 mM glucose + 10% dialyzed FBS; 48 h
Mark True only when AUC of viability dose-response curve stays strictly below 400. Values equal to the cut-off are False.

[[record]]
molecule = "COc1cc(C[C@@H](CO)[C@H](CO)Cc2ccc(O)c(OC)c2)ccc1O"
discrete_label = "False"

[[record]]
molecule = "C[C@]12CC[C@H]3[C@@H](CC[C@@]45O[C@@H]4C(O)=C(C#N)C[C@]35C)[C@@H]1CC[C@@H]2O"
discrete_label = "False"

[[record]]
molecule = "O=C1c2ccccc2-c2n[nH]c3cccc1c23"
discrete_label = "False"

[[record]]
molecule = "CC(C)CC(=O)Nc1n[nH]c2c1CN(C(=O)C1CCN(C)CC1)C2(C)C"
discrete_label = "True"

[[record]]
molecule = "O=C(Nc1cccnc1)N1CCC(Cc2cccc(Oc3ccc(C(F)(F)F)cn3)c2)CC1"
discrete_label = "True"

[[record]]
molecule = "Cc1ccc(C(=O)Nc2ccc([S+](=O)([O-])O)c3cc([S+](=O)([O-])O)cc([S+](=O)([O-])O)c23)cc1NC(=O)c1cccc(NC(=O)Nc2cccc(C(=O)Nc3cc(C(=O)Nc4ccc([S+](=O)([O-])O)c5cc([S+](=O)([O-])O)cc([S+](=O)([O-])O)c45)ccc3C)c2)c1"
discrete_label = "True"

[[record]]
molecule = "CCC(=O)N1CCN(CC1)C2=C(C=C(C=C2)N3C(=O)\\C=C/C4=C3C5=CC(=CC=C5N=C4)C6=CN=C7C=CC=CC7=C6)C(F)(F)F"
discrete_label = "True"

[[record]]
molecule = "Nc1nccc(-c2ccc3noc(-c4ccc(Cl)cc4)c3c2)n1"
discrete_label = "False"

[[record]]
molecule = "CCn1c(C(=O)N(C2CC2)C2CC2)cc2c3c(ncn3C)c(Nc3cc(C)n(C)n3)nc21"
discrete_label = "False"

[[record]]
molecule = "C#CCC(Cc1cnc2nc(N)nc(N)c2n1)c1ccc(C(=O)N[C@@H](CCC(=O)O)C(=O)O)cc1 (stereo partly specified)"
discrete_label = "True"

[[record]]
molecule = "CC[C@H](CO)Nc1nc(NCc2ccccc2)c2ncn(C(C)C)c2n1"
discrete_label = "False"

[[record]]
molecule = "C[S+](=O)([O-])N1CCN(Cc2cc3nc(-c4cccc5[nH]ncc45)nc(N4CCOCC4)c3s2)CC1"
discrete_label = "False"

[[record]]
molecule = "C[C@H](c1ccc(F)cc1CCCC(=O)O)N(c1cc(F)ccc1F)[S+](=O)([O-])c1ccc(Cl)cc1"
discrete_label = "False"


###

Measured cell viability, listed per entry.
system: NOMO1; assay: cell viability relative to DMSO control; higher = less cytotoxic; conditions: HPLM + 10% dialyzed FBS; 48 h; 0.00234 µM
Test readout: cell viability (%)

[[record]]
compound = "CC(=O)N(O)CCCCCNC(=O)CCC(=O)N(O)CCCCCNC(=O)CCC(=O)N(O)CCCCCN.C[S+](=O)([O-])O"
subject_of_test = "NOMO1"
recorded_result = 83.7

[[record]]
compound = "Clc1ccc(C(c2ccc(Cl)cc2)[n+]2ccn(CC(OCc3ccc(Cl)cc3Cl)c3ccc(Cl)cc3Cl)c2)cc1 (stereo not given)"
subject_of_test = "NOMO1"
recorded_result = 99

[[record]]
compound = "Cc1nc(-c2ccc(-c3ccc(C(=O)N4CCc5cc6c(cc54)C4(CCN(C)CC4)CO6)cc3)c(C)c2)no1"
subject_of_test = "NOMO1"
recorded_result = 119

[[record]]
compound = "CO[C@H]1C[C@@H]2CC[C@@H](C)[C@@](O)(O2)C(=O)C(=O)N2CCCC[C@H]2C(=O)O[C@H]([C@@H](C)C[C@@H]2CC[C@@H](O)[C@H](OC)C2)CC(=O)[C@H](C)/C=C(\\C)[C@@H](O)[C@@H](OC)C(=O)[C@H](C)C[C@H](C)/C=C/C=C/C=C/1C"
subject_of_test = "NOMO1"
recorded_result = 110

[[record]]
compound = "OC1CCC(CC1)N2\\C=N/C3=C(C2=N)C(=C([N]3CC4=CC=CC=C4)C5=CC=CC=C5)C6=CC=CC=C6 (stereo not given)"
subject_of_test = "NOMO1"
recorded_result = 133

[[record]]
compound = "CN1CCC(CNc2ccc3ncc(-c4cccc(OC(F)(F)F)c4)n3n2)CC1"
subject_of_test = "NOMO1"
recorded_result = 106

[[record]]
compound = "COc1cc(N2CCN(C)CC2)ccc1Nc1nc(N)c(C(=O)c2c(Cl)cccc2Cl)s1"
subject_of_test = "NOMO1"
recorded_result = 105

[[record]]
compound = "CCc1nc(N)nc(N)c1-c1ccc(Cl)cc1"
subject_of_test = "NOMO1"
recorded_result = 118

[[record]]
compound = "COc1cc2cc(c1Cl)N(C)C(=O)C[C@H](OC(=O)C(C)C)[C@]1(C)O[C@@H]1[C@H](C)[C@@H]1C[C@@](O)(NC(=O)O1)[C@H](OC)/C=C/C=C(\\C)C2"
subject_of_test = "NOMO1"
recorded_result = 53.1

[[record]]
compound = "COC(=O)CCC1=C(C)C2=CC3=NC(=CC4=C(C)C(=C([NH]4)C=C\\5N=C(C=C1[NH]2)\\C(=C5C)CCC(O)=O)C=C)\\C6=C\\C=C(/[C@@H](C(=O)OC)[C@@]36C)C(=O)OC"
subject_of_test = "NOMO1"
recorded_result = 94.3

[[record]]
compound = "CC(C)CC(=O)Nc1n[nH]c2c1CN(C(=O)C1CCN(C)CC1)C2(C)C"
subject_of_test = "NOMO1"
recorded_result = 154

[[record]]
compound = "C[C@]12CC[C@H]3[C@@H](CC[C@@]45O[C@@H]4C(O)=C(C#N)C[C@]35C)[C@@H]1CC[C@@H]2O"
subject_of_test = "NOMO1"
recorded_result = 111

[[record]]
compound = "OC1=CC(=C(C=C1)\\C2=C(O)\\C(=O)C3=C(O2)C=C(O)C=C3O)O"
subject_of_test = "NOMO1"
recorded_result = 118

[[record]]
compound = "Clc1ccc(C(c2ccccc2Cl)C(Cl)Cl)cc1 (stereo not given)"
subject_of_test = "NOMO1"
recorded_result = 124

[[record]]
compound = "O=C1\\C=C(OC2=C(C=CC=C12)C3=CC=CC4=C3SC5=C4C=CC=C5)\\N6CCOCC6"
subject_of_test = "NOMO1"
recorded_result = 123


Source of measurements: the supplement of paper PMC11451515
